Biological target: T1, La (LARP3, La/SSB), recombinant His-tagged wildtype (human, UniProt P05455 1-408)
T1 sequence: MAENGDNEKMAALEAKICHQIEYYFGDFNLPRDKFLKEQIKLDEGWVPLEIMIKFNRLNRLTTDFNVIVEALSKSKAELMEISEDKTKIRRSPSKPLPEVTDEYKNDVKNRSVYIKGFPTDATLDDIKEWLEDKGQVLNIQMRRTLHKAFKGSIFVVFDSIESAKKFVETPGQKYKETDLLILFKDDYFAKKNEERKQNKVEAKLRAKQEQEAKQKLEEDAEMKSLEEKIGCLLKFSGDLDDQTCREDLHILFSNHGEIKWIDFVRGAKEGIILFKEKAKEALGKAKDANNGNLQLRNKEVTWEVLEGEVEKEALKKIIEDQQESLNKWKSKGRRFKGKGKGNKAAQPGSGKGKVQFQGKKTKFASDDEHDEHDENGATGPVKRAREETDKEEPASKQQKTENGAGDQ
Assay: fluorescence polarization; 25 nM RNA; EMSA and FP: 25 nM FAM-RNA, 0-600 nM La; competition FP: 200 nM La; buffer, salt, pH and temperature not given (cited to ref 21)
Conditions: protein: recombinant; tags: His; label: 5' 6-FAM; stem-loop embedding the AUG (mfold)
pKd: −log10 of the molar value.

>  <BINDER>
CCCGUUGCUUUUCCUCUGGGAAGGAUGGCGCACGCUGGG (structured_RNA) [Bcl2_WT RNA oligonucleotide, FAM-labeled (-24 to +15)]

>  <pKd>
7.22

$$$$
